Quick reference: pIC50 of the listed items.
target: CDK2/Cyclin E complex (Homo sapiens, UniProt P24941); test: CDK2/Cyclin E fluorescence-based microfluidic mobility shift assay (CDK2 Biochemical Caliper Assay); details: read-out: Biochemical CDK2/CyclinE Caliper IC50
pIC50: −log10 of the molar value.

- COCc1cc(C(=O)Nc2cc([C@H]3CC[C@@H](Oc4ccccc4)C3)[nH]n2)n(C)n1 (single isomer, unassigned): 4.00 to 6.00

# lookup: pIC50 of CC(C)NC(=O)O[C@H]1CO[C@@H](c2cc(Nc3nccn4nc(CN5CCOCC5)cc34)n[nH]2)C1
≥ 7.00

Another: COCc1cc2c(Nc3cc([C@H]4C[C@@H](OC(=O)NC5(C)CC5)CO4)[nH]n3)nccn2n1
≥ 7.00

Another compound to check: COCc1nc2ccnc(Nc3cc([C@H]4C[C@@H](OC(=O)NC5(C)CC5)CO4)[nH]n3)c2s1
≥ 7.00

Request: CCOC(=O)c1cc2c(Nc3cc([C@@H]4CC[C@H](OC(=O)NC(C)C)C4)[nH]n3)nc(C)cn2n1 (single isomer, unassigned)
≥ 7.00

Also COCc1nc2ccnc(Nc3cc([C@@H]4C[C@H](OC(=O)NC(C)C)CO4)[nH]n3)c2s1 (single isomer, unassigned) , if possible.
≥ 7.00

Moving on to the next compound: Fc1cnc(Nc2cc(C3CCCC3)[nH]n2)c2ccccc12
4.00 to 6.00

* * *

pIC50: recorded values
target: CDK2/Cyclin E complex (Homo sapiens); assay: CDK2/Cyclin E fluorescence-based microfluidic mobility shift assay (CDK2 Biochemical Caliper Assay); conditions: read-out: Biochemical CDK2/CyclinE Caliper IC50
pIC50: −log10 of the molar value.

Look over these answered cases.
• COCc1cc2c(Nc3cc([C@H]4C[C@@H](OC(=O)N[C@H](C)C(F)F)CO4)[nH]n3)nccn2n1 [Example 752] = ≥ 7.00
• COCc1cc2c(Nc3cc([C@H]4C[C@H](COc5nnccc5C(C)C)C4)[nH]n3)nccn2n1 [Example 520] = 4.00 to 6.00
• CC[C@H](C)NC(=O)O[C@H]1CO[C@@H](c2cc(Nc3nccn4nc(COC)cc34)n[nH]2)C1 [Example 675] = ≥ 7.00

Fill blank: measured pIC50 of the compound Cc1cc(CC(=O)Nc2cc([C@H]3C[C@@H]4CC[C@H]3C4)[nH]n2)on1 (racemic) [Example 49] is ____.
4.00 to 6.00

* * *

Items are presented alongside their recorded pIC50.
target: CDK2/Cyclin E complex (Homo sapiens); assay: CDK2/Cyclin E fluorescence-based microfluidic mobility shift assay (CDK2 Biochemical Caliper Assay); conditions: read-out: Biochemical CDK2/CyclinE Caliper IC50
pIC50: −log10 of the molar value.

* COCc1cc(C(=O)Nc2cc([C@@H]3CC[C@H](Oc4cccnc4C)C3)[nH]n2)n(C)n1 (single isomer, unassigned) [Example 386] | 6.00 to 6.60
* Cc1ncccc1O[C@@H]1CO[C@H](c2cc(Nc3nccn4nccc34)n[nH]2)C1 [Example 521] | 4.00 to 6.00
* CC[C@@H](C)NC(=O)O[C@H]1CO[C@@H](c2cc(Nc3nccn4nc(COC)cc34)n[nH]2)C1 [Example 654] | ≥ 7.00
* COCc1cc2c(Nc3cc([C@H]4C[C@@H](Oc5nn(C)cc5C(C)C)CO4)[nH]n3)nccn2n1 [Example 790] | 4.00 to 6.00
* CC(C)NC(=O)O[C@H]1CO[C@@H](c2cc(Nc3nccn4nc(COC(F)F)cc34)n[nH]2)C1 [Example 667] | ≥ 7.00

Now look at this one.
Name the reported pIC50 value associated with the molecule Cc1cc(CC(=O)Nc2cc([C@H]3CC[C@H](N(C)C(=O)NC(C)C)C3)[nH]n2)on1 (single isomer, unassigned) [Example 141]
4.00 to 6.00
